Values were extracted from patent US5518735A.

assay-target: factor Xa (Bos taurus)
Sequence (P00743 234-492 limits assumed): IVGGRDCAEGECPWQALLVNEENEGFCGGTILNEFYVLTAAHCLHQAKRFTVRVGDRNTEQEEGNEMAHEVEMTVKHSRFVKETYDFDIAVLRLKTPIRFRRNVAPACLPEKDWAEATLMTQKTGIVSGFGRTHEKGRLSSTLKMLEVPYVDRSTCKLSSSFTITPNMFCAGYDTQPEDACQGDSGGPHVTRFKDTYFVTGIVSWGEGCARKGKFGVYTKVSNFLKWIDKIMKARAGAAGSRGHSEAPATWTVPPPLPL
Sequence (P00743 41-180 partner limits assumed): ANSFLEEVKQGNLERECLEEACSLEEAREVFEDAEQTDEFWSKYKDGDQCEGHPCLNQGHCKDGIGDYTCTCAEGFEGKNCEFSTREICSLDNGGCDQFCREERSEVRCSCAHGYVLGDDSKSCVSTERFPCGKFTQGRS
measurement-description: Inhibition of factor Xa (dissociation constant Ki)
Format: biochemical
experimental-setup: Tables 19-25; read-out: Ki, Factor Xa
Where a name gives a salt, the structure may show the parent alone.
property-name: pKi
Value format note: pKi is -log10 of concentration (mol/L); just state the number.

Observe how each entry below is paired with its result.
{"compound": "CC1CCN(C(=O)C(Cc2cccc(C(=N)N)c2)NC(=O)CNS(=O)(=O)c2ccc3ccccc3c2)CC1 (racemic)", "pKi": 4.60}
{"compound": "N=C(N)c1cccc(CC(NS(=O)(=O)c2ccc3ccccc3c2)C(=O)N2CCCCC2C(=O)O)c1 (racemic)", "pKi": 4.42}

Q. Item under review: N=C(N)Nc1cccc(CC(NS(=O)(=O)c2ccc3ccccc3c2)C(=O)N2CCCCC2C(=O)O)c1 (racemic) [Compound 208, hydrochloride] . Reported pKi?
A. 4.09
